Numbers sourced from paper PMC10313921.

system: MB231Br (breast cancer metastasis to brain); assay: Drug screening of MB231Br tumor foci on OBSCs; type: cell-based, human; conditions: MB231BR on OBSCs; slope through the EC50
attributeMeasured: Slope
Output spec: single numeric token, no unit.

Recorded results for 3 molecules are shown here.
For this molecule ( Nc1ccn([C@@H]2O[C@H](CO)[C@@H](O)C2(F)F)c(=O)n1 [Gemcitabine] ), measured Slope is 1.56E-02

Slope for CC[C@]1(O)C[C@H]2CN(CCc3c([nH]c4ccccc34)[C@@](C(=O)OC)(c3cc4c(cc3OC)N(C=O)[C@H]3[C@@](O)(C(=O)OC)[C@H](OC(C)=O)[C@]5(CC)C=CCN6CC[C@]43[C@@H]65)C2)C1 [Vincristine] is -1.89E-02

Note to self: Slope recorded for CC(=O)Nc1cccc(-n2c(=O)n(C3CC3)c(=O)c3c(Nc4ccc(I)cc4F)n(C)c(=O)c(C)c32)c1 [Trametinib] was -2.78E-01

More entries:
The reported Slope of the molecule COc1cc([C@@H]2c3cc4c(cc3[C@@H](O[C@@H]3O[C@@H]5CO[C@@H](C)O[C@H]5[C@H](O)[C@H]3O)[C@H]3COC(=O)[C@H]23)OCO4)cc(OC)c1O [Etoposide] was -3.00E-03

Input Nc1ncn([C@@H]2O[C@H](CO)[C@@H](O)[C@H]2O)c(=O)n1 [Azacitidine] . Output Slope: -1.20E-03

For O=NN(CCCl)C(=O)NC1CCCCC1 [Lomustine] the molecule record lists Slope as -1.20E-03

Measured Slope of N.N.[Cl][Pt][Cl] [Cisplatin] : -4.00E-03

Slope reported for this molecule N.N.O=C([O-])C1(C(=O)[O-])CCC1.[Pt+2] [Carboplatin] : -8.00E-02
